- test_name: yeast display, Sf9 membrane polyspecificity reagent, FACS + sequencing; frameworks hold sequencing errors
observed_property: polyreactivity (PSR sort gate)

Record excerpt, results attached:
biopolymer_sequence	observed_measurement
QVQLVESGGGLVQAGGSLRLSCAASGSIFLYNAMGWYRPAPRKERELVAAISKSGGSTYYADSVKGRFTISRDNAKNTVYLQMNSLKPEDSAVYYCAAGYGRRIRYGSDYDYWGQGTQVTVSS	low polyreactivity
QVQLVESGGGLVQAGGSLRLICAASGRIFYGYAMGWSRQAPGKERELVAAIRWSGGRTYYADSVKGRFTISRDNAKNTVYLQMNSLKPEATAVYYCAADYGYRSYVRFLSANYDYWGKGTQVTVSS	high polyreactivity
QVQLVESGGGLVQAGGSLRLSCAGSGSTFQRYGMGWYRQAPGKEREFVAAISTSGGITYYADSVKGRFTISRDNAKNTVYLQMNSLKPEDTAVYYCAARTARHVRYWAGWRDYWGQGTQVTVSS	high polyreactivity
QVQLVESGGGLVQAGGSLRLSCAASGRTFSYYAMGWYRQAPGKERELVATISWSGSTYYADSVKGRFTLSRDNAKNTVYLQMNSLKPEDTAVYYCAARYRYAGWYSVWYDYWGQGTQVSVSS	high polyreactivity
QVQLVESGGGLVQAGGSLRLSCAASGSTFYLNAMGWYRQAPGKERELVAAINSGDSTNYADSVKGRFTISRDNAKNSVYLQMNSLKPEDNAVYYCARDRYPSEGDYWGQGTQVTVSS	low polyreactivity

Problem: Look up polyreactivity (PSR sort gate): QVQLVESGGGLVQAGGSLRLSCAASGSIFASNAMGWYRQAPGKERELVAAISTSGGSTYYADSVKGRFTISRDNAKNTVYLQMNSLKPEDTAVYYCAKLLARGFRIWQDYDYWGQGTQVTVSS
Solution: low polyreactivity

Problem: // lookup polyreactivity (PSR sort gate) for QVQLVESGGGLVQAGGSLRLSCAASGSIFQYYPMGWYRQAPGKERELVAAINSGGRTNYADSVKGRFTISRDNAKNTVYLQMNSLKPEDTAVYYCAKRLSTRASFGEEDSWGQGTQVTVSS
Solution: low polyreactivity

Problem: Using the record for QVQLVESGGGLVQAGGSLRLSCAASGIIFTTNAMGWYRQAPGKERELVATITSGGGTYYADSVKGRFTISRDNAKNTVYLQMNSLKPEDTAVYYCAATPGWGPWIFDHSYVDFDYWGQGTQVTVSS , report its polyreactivity (PSR sort gate).
Solution: low polyreactivity

Problem: Fill in: polyreactivity (PSR sort gate) of QVQLVESGGGLVQAGGSLRLSCAASGRTLSVYAMGWYRQAPGKERELVAAITIRGGRTYYADSVKGRFTISRDNAKNTVYLQMNSLKPEDTAVYYCAAPPYVKMDYWGQGTQVTVSS is ___
Solution: high polyreactivity

Problem: What does the record list as polyreactivity (PSR sort gate) for QVQLVESGGGLVQAGGRLRLSCAASGSIFAGYAMGWYRQAPGKERELVAAITSSCGSTYYADSVKGRFTISRDNAKNTVYLQMNSLNPEDTAVYYCAKDKLIFYRVGSDYWGQGTQVTVSS ?
Solution: low polyreactivity

Problem: What polyreactivity (PSR sort gate) value was documented for this sequence, QVQLVESGGGLVQAGGSLSLSCAASGSTFSRNTMGRYRQAPRKERELVAGISSSGGSTYYADSVKGRFTISRDNAKNTVYLQMNSLKQEDTAVYYCSARFYVSFVGYNYWGQGTQVTVSS ?
Solution: high polyreactivity

====

- test_name: yeast display, Sf9 membrane polyspecificity reagent, FACS + sequencing; frameworks hold sequencing errors
observed_property: polyreactivity (PSR sort gate)

biopolymer_sequence	observed_measurement
QVQLVESGGGLVQAGGSLRLSCAASGRIFPFYAMVWYRQAPGKERELVAAITTSGGSTYYADSVKGRFTISRDNAKNTVYLQMNRLKPEDTAVYYCNKRLGLELAPWEMNYWGQGTQVTVSS	low polyreactivity
QVQLVESGGGLVQAGGSLRLSCAASGFTFSTNAMGWYRQAPGKERELVAAISPDGGTYYADSVKGRFTISRDNAKNTVYLQMNSLKPEDTAVYYCAAVWGRGVWDLYDYWGQGTQVTVSS	low polyreactivity
QVQLVESGGGLVQAGGSLRLSCAASGSTLVTYAMAWYRQAPGKERELVAAISGGTGTDYADSVKGRFTISRDNAKNTVYLQMNSLKPEDTAVYYCAAKSSSNKVDYYYWGQGSQVTVSS	low polyreactivity

====

- test_name: yeast display, Sf9 membrane polyspecificity reagent, FACS + sequencing; frameworks hold sequencing errors
observed_property: polyreactivity (PSR sort gate)

biopolymer_sequence	observed_property	observed_measurement
QVQLVESGGGLVQAGGSLRLSCAASGSILGIKVMGWYRQAPGKERELVAAISRRGGSTYYADSVKGRFTISRDNAKNTVYLQMNSLKPEDTAVYYCAATRTARTMGYWGQGTQVTVSS	polyreactivity (PSR sort gate)	high polyreactivity
QVQLVESGGGLVQAGGSLRLSCAASGSIFQAYVMGWYRQAPGTERELVATIDRRGGITYYADSVKGRFTISRDNAKNNVYLQMNSLKPEDTAVYYCATALIVLGPSRYEYWGQGTQVTVSS	polyreactivity (PSR sort gate)	high polyreactivity
QVQLVESGGGLVQAGGSLRLSCAASGRTFGGYAMGWYRQAPGTERELVAAIRSRGGRTYYADSVKGRFTISRDNAKKSVYLQMNSLKPEDTAVYYCATYGNKWGEDYWGQGTQVTVSS	polyreactivity (PSR sort gate)	high polyreactivity

====

- test_name: yeast display, Sf9 membrane polyspecificity reagent, FACS + sequencing; frameworks hold sequencing errors

biopolymer_sequence	polyreactivity (PSR sort gate)
QVQLVESGGGLVQAGGSLRLSCAAYGSTFRRNTMGWYRQAPGKERELVAGISSSGGSTYYADSVKGRFTISRDTAMNTVYLQMNSLKPEDTAVYYCAARYYVSYVGYNYWGQCTQVTVSS	high polyreactivity
QVQLVESGGGLVQAGGSLRLSCAASGSTSLSYVKGWYRQAPGKERELVATITSSGGSTYYADSVKGRFTISRDNAKNTDYLQMNSLKQEDPAVYYCNARSYIYPFSPTSYYRYYWGQGTQVTGSS	high polyreactivity
QVQLLESGGGLVQAGGSLRISCAASGRTFTYNAMGWYRQAPGKERELVAAITASGGSTYYADSVKGRFTISRDNAKNTVYLQMNSLKPEDTAVYYCAARWSSPYVKLGYWGQGTQVTVSS	high polyreactivity

====

- test_name: yeast display, Sf9 membrane polyspecificity reagent, FACS + sequencing; frameworks hold sequencing errors
observed_property: polyreactivity (PSR sort gate)

biopolymer_sequence	polyreactivity (PSR sort gate)
QVQLVESGGGLVQAGGSLRLSCAASGFIFYANAMGWYRQAPGKERELVAAITWSGSRTYYADSVKGRFTISRDNAKNTVYLQMNSLKPEDTAVYYCNKDWYVGSFGYPEDYWGQGTQVTVSS	low polyreactivity
QVQLVESGGGLVQAGGSLRLSCAASGSIFTFYAMGWYRQAPGKERELVAAITTIGGRTYYADSVKGRFTISRDNAKNTVYLQMNSLKPEDTAVYYCAAGYRAWEPYGHYGYWGQGTQVTVSS	high polyreactivity
QVQLVESGGGLVQAGGSLRLSCAASGSIFVSYTMGWYRQAPGKERELVAAITRSGGSTYYADSVKGRFTISRDNAKNTVYLQMNSLKPEDTAVYYCARVSRRGPGYTTLYSRYDYWGQVTQVTVSS	low polyreactivity
QVQLVESGGGLVQAGGSLRLSCAASGSTFRYYAMGWYRQAPGKERELVAAISSSGGSTYYADSVKGRFTISRDNAKNTVYLQLNSLKPEDTAVYYCNRGVVYRTGRFDYWGQVTQVTVSS	high polyreactivity

Problem: Item under review: QDQLVESGGGLVQAGGSLRLSCAASGRTFYFYAMGWYRQAPGKERELVAAISWTGGITYYADSVKGRFTISRDNAKNTVYLQMNSLKPEDTAVYYCAKKYYKVHKFDYWGQGTQVTVSS . Reported polyreactivity (PSR sort gate)?
Solution: low polyreactivity

====

- test_name: yeast display, Sf9 membrane polyspecificity reagent, FACS + sequencing; frameworks hold sequencing errors
observed_property: polyreactivity (PSR sort gate)

Answered cases to consult:
biopolymer_sequence	observed_property	observed_measurement
QVQLVESGGGLVQAGGSLRLSCAASGGTFFWYGMGWYRQAPGKERELVAAITSGGSTYYADSVKGRFTISRDNAKNTVYLQMNSLKPEDTAVYYCATENRFRGWYPTRSSLPYEYWGQGTQVTVSS	polyreactivity (PSR sort gate)	low polyreactivity
QVQLVESVGGLVQAGGSIRLSCAASGRIIDVNAMGWYRQAPGKERELVAAIRSGGRTNYADSVKGRFTISRDNAKNTVYLQMNSLKPEDTAVYYCGAVVWSSLDDYWGQGTQVTVSS	polyreactivity (PSR sort gate)	high polyreactivity
QVQLVESGGGLVQAGGSLRLSCAASGRTFYVYDMGWYRQAPRKEREFVATITARGGSTSYADSVKGRFTISRDNAKNTVYLQMNILKPEDTAVYYCNADIHVYPTRTRYYYWGQGTQVTVSS	polyreactivity (PSR sort gate)	low polyreactivity
QDQLVESGGGLVQAGGSLRLSCSATGRIFRSYAMGWYRQAPGKERELVASITWRGSSTYYADSVKGRFTISRDNAKNTVYLQMNSRKPEDTAVYYCAKEGYLYLWRYDYWGQGTQVTVSS	polyreactivity (PSR sort gate)	high polyreactivity

Problem: Look up polyreactivity (PSR sort gate): QDQLVESGGGLVQAGGSLRLICAASGSTFEYNAMGWSRHAPGKERELVASSTNYADSVKGRFTISRDNAKNTVYLQMNSLIPEDTAVYYCAREHGVNRNHDYWGQGTQVTVSS
Solution: low polyreactivity
